I'd be grateful if you could share measured MIC for these entries.
- Test system: Staphylococcus aureus
- test: Antibacterial activity against erythromycin-sensitive Staphylococcus aureus ATCC 13709 by broth microdilution method
- Type: functional
Write the value in µg/mL as a bare number.

INPUT: Kindly state the measured MIC obtained for CC[C@H]1OC(=O)[C@H](C)[C@@H](O[C@H]2C[C@@](C)(OC)[C@@H](OC(=O)CCOCCNc3ccc4c(c3)c(=O)c(C(=O)OCCN3CCCCC3)cn4C3CC3)[C@H](C)O2)[C@H](C)[C@@H](O[C@@H]2O[C@H](C)C[C@H](N(C)C)[C@H]2O)[C@](C)(O)C[C@@H](C)CN(C)[C@H](C)[C@@H](O)[C@]1(C)O with Staphylococcus aureus.
OUTPUT: 0.25

INPUT: Kindly state the measured MIC obtained for CC[C@H]1OC(=O)[C@H](C)[C@@H](O[C@H]2C[C@@](C)(OC)[C@@H](OC(=O)CCOCCOc3cc4c(=O)c(C(=O)OCOC(=O)C(C)(C)C)cn(C5CC5)c4cc3Cl)[C@H](C)O2)[C@H](C)[C@@H](O[C@@H]2O[C@H](C)C[C@H](N(C)C)[C@H]2O)[C@](C)(O)C[C@@H](C)CN(C)[C@H](C)[C@@H](O)[C@]1(C)O with Staphylococcus aureus.
OUTPUT: 1

====

I'd be grateful if you could share measured MIC for these entries.
- Test system: Staphylococcus aureus
- test: Antibacterial activity against constitutive macrolide, lincosamide, streptogramin-resistant Staphylococcus aureus PK2 by broth microdilution method
- Assay type: functional

INPUT: Find the recorded MIC belonging to CC[C@H]1OC(=O)[C@H](C)[C@@H](O[C@H]2C[C@@](C)(OC)[C@@H](OC(=O)CCOCCNc3cc4c(=O)c(C(=O)OCOCCOC)cn(C5CC5)c4cc3Cl)[C@H](C)O2)[C@H](C)[C@@H](O[C@@H]2O[C@H](C)C[C@H](N(C)C)[C@H]2O)[C@](C)(O)C[C@@H](C)CN(C)[C@H](C)[C@@H](O)[C@]1(C)O and report it.
OUTPUT: > 64 µg/mL

INPUT: Find the recorded MIC belonging to CC[C@H]1OC(=O)[C@H](C)[C@@H](O[C@H]2C[C@@](C)(OC)[C@@H](OC(=O)CCOCCOc3ccc4c(c3)c(=O)c(C(=O)OC(C)C)cn4C3CC3)[C@H](C)O2)[C@H](C)[C@@H](O[C@@H]2O[C@H](C)C[C@H](N(C)C)[C@H]2O)[C@](C)(O)C[C@@H](C)CN(C)[C@H](C)[C@@H](O)[C@]1(C)O and report it.
OUTPUT: > 64 µg/mL

INPUT: Find the recorded MIC belonging to CC[C@H]1OC(=O)[C@H](C)[C@@H](O[C@H]2C[C@@](C)(OC)[C@@H](OC(=O)CCOCCNc3ccc4c(c3)c(=O)c(C(=O)O)cn4C3CC3)[C@H](C)O2)[C@H](C)[C@@H](O[C@@H]2O[C@H](C)C[C@H](N(C)C)[C@H]2O)[C@](C)(O)C[C@@H](C)CN(C)[C@H](C)[C@@H](O)[C@]1(C)O and report it.
OUTPUT: 32 µg/mL

====

- System: Streptococcus pyogenes
- test: Antibacterial activity against inducible macrolide-lincosamide-streptogramin B resistant Streptococcus pyogenes Finland 11 by broth microdilution method
- Type: functional
value.kind: MIC

INPUT: Find the recorded MIC belonging to CCC(=O)CNC(=O)COC(=O)c1cn(C2CC2)c2ccc(NCCOCCC(=O)O[C@H]3[C@H](C)O[C@@H](O[C@H]4[C@H](C)[C@@H](O[C@@H]5O[C@H](C)C[C@H](N(C)C)[C@H]5O)[C@](C)(O)C[C@@H](C)CN(C)[C@H](C)[C@@H](O)[C@](C)(O)[C@@H](CC)OC(=O)[C@@H]4C)C[C@@]3(C)OC)cc2c1=O and report it.
OUTPUT: ≤ 0.125 mg/L

INPUT: Find the recorded MIC belonging to CCCn1cc(C(=O)O)c(=O)c2cc(NCCOCCOCCC(=O)O[C@H]3[C@H](C)O[C@@H](O[C@H]4[C@H](C)[C@@H](O[C@@H]5O[C@H](C)C[C@H](N(C)C)[C@H]5O)[C@](C)(O)C[C@@H](C)CN(C)[C@H](C)[C@@H](O)[C@](C)(O)[C@@H](CC)OC(=O)[C@@H]4C)C[C@@]3(C)OC)c(Cl)cc21 and report it.
OUTPUT: ≤ 0.125 mg/L

INPUT: Find the recorded MIC belonging to CC[C@H]1OC(=O)[C@H](C)[C@@H](O[C@H]2C[C@@](C)(OC)[C@@H](OC(=O)CCOCCNc3cc4c(=O)c(C(=O)OCCN5CCCC5)cn(C5CC5)c4cc3Cl)[C@H](C)O2)[C@H](C)[C@@H](O[C@@H]2O[C@H](C)C[C@H](N(C)C)[C@H]2O)[C@](C)(O)C[C@@H](C)CN(C)[C@H](C)[C@@H](O)[C@]1(C)O and report it.
OUTPUT: ≤ 0.125 mg/L

====

I'd be grateful if you could share measured MIC for these entries.
- System: Staphylococcus aureus
- test: Antibacterial activity against erythromycin-sensitive Staphylococcus aureus ATCC 13709 by broth microdilution method
- Type: functional
Write the value in µg/mL as a bare number.

INPUT: Find the recorded MIC belonging to CC[C@H]1OC(=O)[C@H](C)[C@@H](O[C@H]2C[C@@](C)(OC)[C@@H](OC(=O)CCOCCNc3cc4c(=O)c(C(=O)OCOCCOC)cn(C5CC5)c4cc3Cl)[C@H](C)O2)[C@H](C)[C@@H](O[C@@H]2O[C@H](C)C[C@H](N(C)C)[C@H]2O)[C@](C)(O)C[C@@H](C)CN(C)[C@H](C)[C@@H](O)[C@]1(C)O and report it.
OUTPUT: 1

INPUT: Find the recorded MIC belonging to CC[C@H]1OC(=O)[C@H](C)[C@@H](O[C@H]2C[C@@](C)(OC)[C@@H](OC(=O)CCOCCNc3ccc4c(c3)c(=O)c(C(=O)OC(C)C)cn4C3CC3)[C@H](C)O2)[C@H](C)[C@@H](O[C@@H]2O[C@H](C)C[C@H](N(C)C)[C@H]2O)[C@](C)(O)C[C@@H](C)CN(C)[C@H](C)[C@@H](O)[C@]1(C)O and report it.
OUTPUT: 0.5

INPUT: Find the recorded MIC belonging to CC[C@H]1OC(=O)[C@H](C)[C@@H](O[C@H]2C[C@@](C)(OC)[C@@H](OC(=O)CCOCCNc3ccc4c(c3)c(=O)c(C(=O)O)cn4C3CC3)[C@H](C)O2)[C@H](C)[C@@H](O[C@@H]2O[C@H](C)C[C@H](N(C)C)[C@H]2O)[C@](C)(O)C[C@@H](C)CN(C)[C@H](C)[C@@H](O)[C@]1(C)O and report it.
OUTPUT: 0.5

INPUT: Find the recorded MIC belonging to CC[C@H]1OC(=O)[C@H](C)[C@@H](O[C@H]2C[C@@](C)(OC)[C@@H](OC(=O)CCOCCOc3cc4c(=O)c(C(=O)O)cn(C5CC5)c4cc3Cl)[C@H](C)O2)[C@H](C)[C@@H](O[C@@H]2O[C@H](C)C[C@H](N(C)C)[C@H]2O)[C@](C)(O)C[C@@H](C)CN(C)[C@H](C)[C@@H](O)[C@]1(C)O and report it.
OUTPUT: 0.25

INPUT: Find the recorded MIC belonging to CC[C@H]1OC(=O)[C@H](C)[C@@H](O[C@H]2C[C@@](C)(OC)[C@@H](OC(=O)CCOCCOc3ccc4c(c3)c(=O)c(C(=O)OCC(C)=O)cn4C3CC3)[C@H](C)O2)[C@H](C)[C@@H](O[C@@H]2O[C@H](C)C[C@H](N(C)C)[C@H]2O)[C@](C)(O)C[C@@H](C)CN(C)[C@H](C)[C@@H](O)[C@]1(C)O and report it.
OUTPUT: 0.5

====

- Test system: Streptococcus pyogenes
- test: Antibacterial activity against inducible macrolide-lincosamide-streptogramin B resistant Streptococcus pyogenes Finland 11 by broth microdilution method
- Format: functional
I'd be grateful if you could share measured MIC for these entries.

INPUT: Find the recorded MIC belonging to CC[C@H]1OC(=O)[C@H](C)C(=O)[C@H](C)[C@@H](O[C@@H]2O[C@H](C)C[C@H](N(C)C)[C@H]2O)[C@](C)(OC)C[C@@H](C)C(=O)[C@H](C)[C@H]2N(CCCCn3cnc(-c4cccnc4)c3)C(=O)O[C@]12C and report it.
OUTPUT: 0.06 µg/mL

INPUT: Find the recorded MIC belonging to CC[C@H]1OC(=O)[C@H](C)[C@@H](O[C@H]2C[C@@](C)(OC)[C@@H](OC(=O)CCOCCNc3ccc4c(c3)c(=O)c(C(=O)OCCN3CCCCC3)cn4C3CC3)[C@H](C)O2)[C@H](C)[C@@H](O[C@@H]2O[C@H](C)C[C@H](N(C)C)[C@H]2O)[C@](C)(O)C[C@@H](C)CN(C)[C@H](C)[C@@H](O)[C@]1(C)O and report it.
OUTPUT: ≤ 0.125 µg/mL

INPUT: Find the recorded MIC belonging to CC[C@H]1OC(=O)[C@H](C)[C@@H](O[C@H]2C[C@@](C)(OC)[C@@H](OC(=O)CCOCCOc3ccc4c(c3)c(=O)c(C(=O)OCC(C)=O)cn4C3CC3)[C@H](C)O2)[C@H](C)[C@@H](O[C@@H]2O[C@H](C)C[C@H](N(C)C)[C@H]2O)[C@](C)(O)C[C@@H](C)CN(C)[C@H](C)[C@@H](O)[C@]1(C)O and report it.
OUTPUT: ≤ 0.125 µg/mL

FYI, the data here is from ChEMBL document CHEMBL1806455.
